target: human glucagon receptor (human) (UniProt P47871); experiment: cell-based or functional assay
Sequence (P47871 26-477): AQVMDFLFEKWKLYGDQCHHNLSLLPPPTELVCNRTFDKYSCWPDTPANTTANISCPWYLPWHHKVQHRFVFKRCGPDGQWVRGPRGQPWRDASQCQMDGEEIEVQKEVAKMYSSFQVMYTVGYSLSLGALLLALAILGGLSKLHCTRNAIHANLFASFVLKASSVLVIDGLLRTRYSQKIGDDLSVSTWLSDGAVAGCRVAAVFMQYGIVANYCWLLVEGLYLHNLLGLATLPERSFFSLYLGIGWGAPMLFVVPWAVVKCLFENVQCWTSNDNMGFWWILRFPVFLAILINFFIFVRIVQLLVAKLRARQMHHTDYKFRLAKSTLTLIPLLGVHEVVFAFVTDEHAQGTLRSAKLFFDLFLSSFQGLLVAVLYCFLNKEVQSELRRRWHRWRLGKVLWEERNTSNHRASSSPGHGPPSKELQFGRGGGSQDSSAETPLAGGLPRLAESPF
Use Relative cAMP EC50 to assign classes; range list: group A = under 3 nM, group B = from 3 nM up to 8 nM, group C = 8 nM and over

binder: YXQGTFTSDFSXXLDXKAQXAFIEXLLEGGPSSGAPPPGGSEE (Aib, Orn, αMeL, αMeY; acylated Lys; C-terminal amide; synthetic construct; SITE 2: note = 2-Aminoisobutyric Acid; SITE 12: note = L-ornithine; SITE 13: note = alpha-methyl-leucine; SITE 16: note = L-ornithine; SITE 17: note = Lysine is chemically modified through conjugation of the epsilon-amino group of the Lysine side chain with (gamma-Glu)2-CO-(CH2)) [Example 1049]
label: group B

binder: YXQGTFTSDFSXXLDXKAQXAFIEYLLEGGPSSGAPPPGGSEE (non-natural residues (Aib, Orn, αMeL); lipidated Lys; C-terminal amide; synthetic construct; SITE 2: note = 2-Aminoisobutyric Acid; SITE 12: note = L-ornithine; SITE 13: note = alpha-methyl-leucine; SITE 16: note = L-ornithine; SITE 17: note = Lysine is chemically modified through conjugation of the epsilon-amino group of the Lysine side chain with (gamma-Glu)2-CO-(CH2)) [Example 1048]
label: group B

binder: YXQGTXTSDXXIXLDXXAQXEFIEXLVEGGPSSGAPPPSGS (synthetic construct; SITE 2: note = 2-Aminoisobutyric Acid; SITE 6: note = alpha-methyl-2-fluoro-L-phenylalanine; SITE 10: note = 3-(4-Pyridyl)-L-alanine; SITE 11: note = alpha-methyl-L-serine; SITE 13: note = alpha-methyl-leucine; SITE 16: note = L-ornithine; SITE 17: note = Ornithine is chemically) [Example 1210]
label: group A

## Task Hello team, could you let me know which band the following binder falls into: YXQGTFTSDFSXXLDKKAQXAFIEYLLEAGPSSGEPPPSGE (synthetic construct; SITE 2: note = 2-Aminoisobutyric Acid; SITE 12: note = L-ornithine; SITE 13: note = alpha-methyl-leucine; SITE 17: note = Lysine is chemically modified through conjugation of the epsilon-amino group of the Lysine side chain with (2-[2-(2-Amino-ethoxy)-ethoxy]-acetyl)2-(gamma-Glu)) [Example 117]
## Result group B

## Task Returns: class label. Input: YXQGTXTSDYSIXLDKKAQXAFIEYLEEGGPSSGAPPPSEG (synthetic construct; SITE 2: note = 2-Aminoisobutyric Acid; SITE 6: note = alpha-methyl-L-phenylalanine; SITE 13: note = alpha-methyl-leucine; SITE 17: note = Lysine is chemically modified through conjugation of the epsilon-amino group of the Lysine side chain with (2-[2-(2-Amino-ethoxy)-ethoxy]-ace)) [Example 395]
## Result group B

## Task Place this binder in its band: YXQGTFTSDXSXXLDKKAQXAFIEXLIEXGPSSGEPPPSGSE (non-natural residues; Lys acylated AEEA-(γGlu)2-C18 diacid; C-terminal amide; synthetic construct; SITE 2: note = 2-Aminoisobutyric Acid; SITE 10: note = 3-(4-Pyridyl)-L-alanine; SITE 12: note = L-ornithine; SITE 13: note = alpha-methyl-leucine; SITE 17: note = Lysine is chemically modified through conjugation of the epsilon-amino group of the Lysine side chain with (2-[2-(2-) [Example 988]
## Result group A

## Task Bin this entry: YXQGTFTSDYSKXLDKKAQXAFVQWLLEGGPSSGEPPPSEG (not fully specified; synthetic construct; SITE 2: note = 2-Aminoisobutyric Acid; SITE 13: note = alpha-methyl-leucine; SITE 17: note = Lysine is chemically modified through conjugation of the epsilon-amino group of the Lysine side chain with (2-[2-(2-Amino-ethoxy)-ethoxy]-acetyl)-(gamma-Glu)-CO-(CH2) 18-CO2H; SITE 20: n) [Example 343]
## Result group B

## Task Note: place this binder into its band. Item: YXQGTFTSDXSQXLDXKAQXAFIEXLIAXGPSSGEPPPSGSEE (not fully specified; non-natural residues; Lys acylated γGlu-C18 diacid; C-terminal amide; synthetic construct; SITE 2: note = 2-Aminoisobutyric Acid; SITE 10: note = 3-(4-Pyridyl)-L-alanine; SITE 13: note = alpha-methyl-leucine; SITE 16: note = L-ornithine; SITE 17: note = Lysine is chemically modified through conjugation of the epsilon-amino group of the Lysine side chain with D-Glutami) [Example 1105]
## Result group C

## Task Kindly state the category for this binder: YXQGTXTSDXSIXLDKKAQXAFIEYLSEGGPSSGEPPPSGSEE (Aib, αMeF(2F), 4Pal, αMeL, acylated K, C-terminal amide; synthetic construct; SITE 2: note = 2-Aminoisobutyric Acid; SITE 6: note = alpha-methyl-2-fluoro-L-phenylalanine; SITE 10: note = 3-(4-Pyridyl)-L-alanine; SITE 13: note = alpha-methyl-leucine; SITE 17: note = Lysine is chemically modified through conjugation of the epsilon-amino group of the Lysine) [Example 632]
## Result group C

## Task Kindly state the category for this binder: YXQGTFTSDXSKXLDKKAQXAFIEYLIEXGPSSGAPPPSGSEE (synthetic construct; SITE 2: note = 2-Aminoisobutyric Acid; SITE 10: note = 3-(4-Pyridyl)-L-alanine; SITE 13: note = alpha-methyl-leucine; SITE 17: note = Lysine is chemically modified through conjugation of the epsilon-amino group of the Lysine side chain with (2-[2-(2-Amino-ethoxy)-ethoxy]-acetyl)) [Example 902]
## Result group C
